experimentalSystem: UniProt:P43005
Sequence (P43005 whole entry): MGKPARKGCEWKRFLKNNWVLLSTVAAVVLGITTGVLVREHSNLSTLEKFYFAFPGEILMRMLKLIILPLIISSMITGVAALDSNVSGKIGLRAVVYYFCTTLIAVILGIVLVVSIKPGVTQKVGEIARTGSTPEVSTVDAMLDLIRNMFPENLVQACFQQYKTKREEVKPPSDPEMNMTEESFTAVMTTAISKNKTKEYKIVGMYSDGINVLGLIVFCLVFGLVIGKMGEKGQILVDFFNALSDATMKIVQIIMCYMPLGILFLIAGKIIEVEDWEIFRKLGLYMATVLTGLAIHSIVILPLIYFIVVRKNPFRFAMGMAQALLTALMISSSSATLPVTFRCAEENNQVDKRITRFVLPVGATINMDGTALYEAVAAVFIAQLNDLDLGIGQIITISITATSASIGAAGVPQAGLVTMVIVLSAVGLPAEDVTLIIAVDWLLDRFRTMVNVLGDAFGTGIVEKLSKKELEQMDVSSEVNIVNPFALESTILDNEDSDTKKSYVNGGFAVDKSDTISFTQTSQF
protocolSummary: Antagonism of L-glutamate uptake currents in voltage-clamped Xenopus oocytes expressing EAAT3
recordedConditions: EAAT3, slope constrained to 1, read-out: KD (Schild analysis)
Procedure: Capped cRNAwas transcribed from the human brain glutamate transporter EAAT1-3 cDNAs as described (Arriza, J. L.; Fairman, W. A.; Wadiche, J. I.; Murdoch, G. H.; Kavanaugh, M. P.; Amara, S. G. J. Neurosci. 1994, 14, 5559-5569.). Transcripts were microinjected into Xenopus oocytes (50 ng per oocyte) and membrane currents were recorded 3-6 days later. Ringer recording solution contained 96 mM NaCl, 2 mM KCI, 1 mM MgCI2, 1.8 mM CaCI2, and 5 mM HEPES (pH 7.4). […]
pKd: −log10 of the molar value.
measuredMetric: pKd

| compound | measuredMetric | readoutNumber |
| --- | --- | --- |
| N[C@H](C(=O)O)C(Cc1ccccc1)C(=O)O (stereo partly drawn) [Compound 3-BA, 3-benzyl L-aspartic acid] | pKd | 5.70 |
